From: ChEMBL document CHEMBL2046283

- assay: Growth inhibition of human HEK293 cells at 70 uM after 48 hrs by alamar blue assay relative to control
- Assay type: cell-based
- assay-setup: read-out: GI

# structure-notation, inhibition at 48 h, 70 µM (%)
rows = [
    ("CO/C(=C\\c1ccccc1)C(=O)N[C@@H](Cc1c[nH]c2cc(Br)ccc12)C(=O)O", 100),
]

###

- assay: Growth inhibition of human HEK293 cells at 50 uM after 48 hrs by alamar blue assay relative to control
- Assay type: cell-based
- assay-setup: read-out: GI
experimental-readout: inhibition at 48 h, 50 µM (%)

# structure-notation, experimental-readout, measurement
measured = [
    ("CO/C(=C\\c1ccccc1)C(=O)N[C@@H](Cc1ccc(O)cc1)C(=O)O", "inhibition at 48 h, 50 µM", 85),
]
